target: human RXFP1 (Homo sapiens, UniProt Q9HBX9); test: RXFP1 Hu cAMP (Test A); type: cell-based; parameters: expressed in transfected cells; host or cells: Jump-In T-REx CHO-K1 cells (ThermoFisher), induced with 10 ng/ml doxycycline for 24 h; settings: RXFP1 Hu cAMP
Listed below: Test A Sinf values for each entry.
assay-readout: Test A Sinf (%)

compound="CCC(CC)CNC(=O)[C@H]1[C@@H]2CC[C@@H](C2)[C@H]1NC(=O)c1cc(OC2CCC(C)(C(=O)O)CC2)c(F)cc1OC (stereo partly shown) [Example 43]" unit_string=% numeric_result=106
compound="COc1cc(F)c(O[C@H]2CC[C@@](C)(C(N)=O)CC2)cc1C(=O)N[C@@H]1[C@@H]2CC[C@@H](C2)[C@@H]1C(=O)NCC1(C)CCC1 [Example 421]" unit_string=% numeric_result=96
compound="COc1cc(Cl)c(O[C@H]2CC[C@@](C)(C(=O)O)CC2)cc1C(=O)N[C@@H]1[C@H]2CC[C@H](C2)[C@@H]1C(=O)NCC(C)(C)C(F)(F)F [Example 409]" unit_string=% numeric_result=107
compound="COc1cc(F)c(O[C@H]2CC[C@@](C)(C(=O)O)CC2)cc1C(=O)N[C@@H]1CCC[C@]1(F)C(=O)Nc1cccc(S(=O)(=O)C(F)(F)F)c1 [Example 355]" unit_string=% numeric_result=114

----------
Molecular target: human RXFP1 (Homo sapiens)
Sequence (Q9HBX9 1-757): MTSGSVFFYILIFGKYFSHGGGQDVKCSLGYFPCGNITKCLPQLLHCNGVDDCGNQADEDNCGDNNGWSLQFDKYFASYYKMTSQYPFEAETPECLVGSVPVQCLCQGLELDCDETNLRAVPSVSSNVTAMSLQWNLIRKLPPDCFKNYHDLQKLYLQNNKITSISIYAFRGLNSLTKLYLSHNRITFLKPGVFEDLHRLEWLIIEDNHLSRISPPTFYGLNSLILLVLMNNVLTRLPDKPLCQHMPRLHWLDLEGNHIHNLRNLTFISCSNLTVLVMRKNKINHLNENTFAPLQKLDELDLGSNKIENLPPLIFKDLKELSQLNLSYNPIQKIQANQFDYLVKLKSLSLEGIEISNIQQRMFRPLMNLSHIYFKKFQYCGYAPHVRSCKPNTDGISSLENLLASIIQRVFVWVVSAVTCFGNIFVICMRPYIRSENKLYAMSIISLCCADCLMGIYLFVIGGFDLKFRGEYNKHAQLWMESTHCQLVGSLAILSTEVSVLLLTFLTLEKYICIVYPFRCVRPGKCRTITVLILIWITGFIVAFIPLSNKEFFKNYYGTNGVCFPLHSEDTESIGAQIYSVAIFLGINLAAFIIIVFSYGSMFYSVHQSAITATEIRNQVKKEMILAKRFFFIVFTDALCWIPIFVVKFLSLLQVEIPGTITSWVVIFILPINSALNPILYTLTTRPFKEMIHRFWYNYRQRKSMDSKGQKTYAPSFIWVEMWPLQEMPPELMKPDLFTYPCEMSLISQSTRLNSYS
Assay: RXFP1 Hu cAMP (Test A)
Format: cell-based
Parameters: expressed in transfected cells; host or cells: Jump-In T-REx CHO-K1 cells (ThermoFisher), induced with 10 ng/ml doxycycline for 24 h
Conditions: RXFP1 Hu cAMP; read-out: Test A EC50
pEC50: −log10 of the molar value.
Listed below: pEC50 values for each entry.
assay-readout: pEC50

compound="COc1ccc(CCC(=O)O)cc1C(=O)N[C@H]1[C@@H](C(=O)Nc2cccc(S(=O)(=O)C(F)(F)F)c2)[C@@H]2C=C[C@H]1C2 (racemic) [Example 218]" result="< 4.40"
compound="COc1cc(C#N)c(O[C@H]2CC[C@@](C)(C(=O)O)CC2)cc1C(=O)N[C@@H]1[C@H]2CC[C@H](C2)[C@@H]1C(=O)NCC1(F)CCC1 [Example 94]" result="< 6.15"
compound="COc1cc(F)c(Cn2ccc(C(=O)O)n2)cc1C(=O)N[C@@H]1[C@H]2CC[C@H](C2)[C@@H]1C(=O)Nc1cccc(S(=O)(=O)C(F)(F)F)c1 [Example 222]" result="< 4.40"
compound="COc1cc(F)c([C@H]2CC[C@H](C(=O)O)CC2)cc1C(=O)N[C@@H]1[C@H]2CC[C@H](C2)[C@@H]1C(=O)Nc1cccc(S(=O)(=O)C(F)(F)F)c1 [Example 269]" result=5.54

src = patent US11667602B2
